- TARGET ENTITY: Human Recombinant Matriptase 2 (Homo sapiens)
- Construct: purchased Enzo Life Sciences (an in-house preparation was also used) ALX-201-752-1
- METHOD SUMMARY: Matriptase 2 fluorescence based inhibition assay, Method A (100 mM TRIS pH 9, 1 mg/mL BSA)
- Format: biochemical
- ASSAY SETUP: at 1 uM; Assay Used = A; read-out: Mar-2 % inhibition at 1 uM

{"SMILES": "N=C(N)c1ccc2c(Br)c(C(=O)N[C@H]3CC[C@H](N)CC3)n(Cc3ccc(Oc4ccccc4)cc3)c2c1", "inhibition at 1 µM": "25 to 50%"}
{"SMILES": "N=C(N)c1ccc2cc(C(=O)N3CCC(F)CC3)n(Cc3ccc(NC(=O)CCN)cc3)c2c1", "inhibition at 1 µM": "0 to 25%"}
{"SMILES": "NCCCC(=O)Nc1cccc(Cn2c(C(=O)N3CCC(CCN)CC3)cc3ccc(/C(N)=N/O)cc32)c1", "inhibition at 1 µM": "0 to 25%"}
{"SMILES": "N=C(N)c1ccc2c(Cl)c(C(=O)NCC3CCCCC3)n(Cc3ccc(-c4ccccc4)cc3)c2c1", "inhibition at 1 µM": "0 to 25%"}
{"SMILES": "N=C(N)c1ccc2cc(C(=O)N3CCC(CF)CC3)n(Cc3ccc(-c4ccccc4)cc3)c2c1", "inhibition at 1 µM": "0 to 25%"}
{"SMILES": "CC(C)CCn1c(C(=O)N2CCC(F)CC2)cc2ccc(C(=N)N)cc21", "inhibition at 1 µM": "0 to 25%"}
{"SMILES": "N=C(N)c1ccc2cc(C(=O)N3CCC(F)(F)C3)n(Cc3ccc(C(F)(F)F)cc3)c2c1", "inhibition at 1 µM": "0 to 25%"}
{"SMILES": "NCCC1CCN(C(=O)c2cc3ccc(/C(N)=N\\O)cc3n2Cc2ccc(-c3ccccc3)cc2)CC1", "inhibition at 1 µM": "0 to 25%"}
{"SMILES": "N=C(N)c1ccc2c(Cl)c(C(=O)N3CCC(F)CC3)n(Cc3ccc(C(N)=O)cc3)c2c1", "inhibition at 1 µM": "0 to 25%"}
{"SMILES": "N=C(N)c1ccc2cc(C(=O)N[C@H]3c4ccccc4C[C@H]3O)n(Cc3ccc(C(N)=O)cc3)c2c1", "inhibition at 1 µM": "0 to 25%"}
{"SMILES": "N=C(N)c1ccc2cc(C(=O)N3CCC(F)CC3)n(Cc3ccc(C(N)=O)cc3)c2c1", "inhibition at 1 µM": "0 to 25%"}
{"SMILES": "N=C(N)c1ccc2cc(C(=O)N3CCC(F)(F)C3)n(CCS(=O)(=O)c3ccccc3)c2c1", "inhibition at 1 µM": "0 to 25%"}
{"SMILES": "N=C(N)c1ccc2cc(C(=O)N3CCC(C(=O)NCCCN)CC3)n(CCc3ccccc3)c2c1", "inhibition at 1 µM": "25 to 50%"}
{"SMILES": "N=C(N)c1ccc2cc(C(=O)N3CCC(CCN)CC3)n(Cc3cccc(Oc4ccccc4)c3)c2c1", "inhibition at 1 µM": "25 to 50%"}
{"SMILES": "N=C(N)c1ccc2cc(C(=O)N3CC[C@@H](F)C3)n(Cc3ccc(Oc4ccccc4)cc3)c2c1", "inhibition at 1 µM": "0 to 25%"}

###

- TARGET ENTITY: Human Recombinant Matriptase 2 (Homo sapiens, UniProt Q8IU80)
- Construct: purchased Enzo Life Sciences (an in-house preparation was also used) ALX-201-752-1
- Sequence (Q8IU80 1-811): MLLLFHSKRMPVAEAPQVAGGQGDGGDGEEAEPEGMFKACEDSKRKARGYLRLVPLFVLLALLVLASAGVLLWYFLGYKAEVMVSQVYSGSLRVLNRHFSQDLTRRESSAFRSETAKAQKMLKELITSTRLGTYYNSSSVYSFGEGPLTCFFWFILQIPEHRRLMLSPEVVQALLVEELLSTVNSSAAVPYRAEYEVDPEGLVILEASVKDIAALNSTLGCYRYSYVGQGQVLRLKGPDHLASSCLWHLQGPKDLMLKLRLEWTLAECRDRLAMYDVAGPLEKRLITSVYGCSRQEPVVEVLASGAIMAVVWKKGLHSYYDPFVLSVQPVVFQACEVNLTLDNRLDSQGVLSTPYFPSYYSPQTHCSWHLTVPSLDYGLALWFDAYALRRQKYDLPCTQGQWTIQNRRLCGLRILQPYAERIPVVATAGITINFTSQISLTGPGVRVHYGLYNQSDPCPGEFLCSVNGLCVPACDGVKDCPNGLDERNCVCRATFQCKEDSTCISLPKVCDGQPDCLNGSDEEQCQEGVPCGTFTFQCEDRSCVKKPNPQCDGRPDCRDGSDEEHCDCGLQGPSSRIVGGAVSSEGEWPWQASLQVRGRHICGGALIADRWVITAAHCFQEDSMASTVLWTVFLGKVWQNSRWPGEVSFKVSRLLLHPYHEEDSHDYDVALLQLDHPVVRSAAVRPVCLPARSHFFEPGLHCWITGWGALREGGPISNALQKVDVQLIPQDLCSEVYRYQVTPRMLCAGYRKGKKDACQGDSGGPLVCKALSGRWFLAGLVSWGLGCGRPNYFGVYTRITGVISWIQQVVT
- METHOD SUMMARY: Matriptase 2 fluorescence based inhibition assay, Method A (100 mM TRIS pH 9, 1 mg/mL BSA)
- Format: biochemical
- ASSAY SETUP: at 1 uM; Assay Used = A; read-out: Mar-2 % inhibition at 1 uM

{"MOLECULE": "CN1CCC(NC(=O)c2cc3ccc(C(=N)N)cc3n2Cc2ccc(C(N)=O)cc2)CC1", "inhibition at 1 µM": "25 to 50%"}
{"MOLECULE": "CC(C)(O)CNC(=O)c1cc2ccc(C(=N)N)cc2n1Cc1ccc(C(N)=O)cc1", "inhibition at 1 µM": "0 to 25%"}
{"MOLECULE": "N=C(N)c1ccc2cc(C(=O)N[C@H]3CC[C@H](N)CC3)n(Cc3ccc(Oc4ccc(Cl)cc4)cc3)c2c1", "inhibition at 1 µM": "50 to 75%"}
{"MOLECULE": "CC(C)c1ccc(Cn2c(C(=O)N3CCC(F)(F)C3)cc3ccc(C(=N)N)cc32)cc1", "inhibition at 1 µM": "0 to 25%"}
{"MOLECULE": "N=C(N)c1ccc2cc(C(=O)N3CCC(CCN)CC3)n(CCc3ccc(F)cc3)c2c1", "inhibition at 1 µM": "25 to 50%"}
{"MOLECULE": "N=C(N)c1ccc2cc(C(=O)N3CCC(F)(F)CC3)n(Cc3ccc(-c4ccccc4)cc3)c2c1", "inhibition at 1 µM": "0 to 25%"}
{"MOLECULE": "N=C(N)c1ccc2cc(C(=O)N3CCC(CCN)CC3)n(Cc3ccc(NC(=O)CCCN)cc3)c2c1", "inhibition at 1 µM": "25 to 50%"}
{"MOLECULE": "N=C(N)c1ccc2cc(C(=O)N3CCC(F)(F)C3)n(Cc3ccc(C(=O)NC4CC4)cc3)c2c1", "inhibition at 1 µM": "0 to 25%"}
{"MOLECULE": "NC(=O)c1ccc(Cn2c(C(=O)Nc3cc(N4CCCC4)ccn3)cc3ccc(/C(N)=N/O)cc32)cc1", "inhibition at 1 µM": "0 to 25%"}
{"MOLECULE": "N=C(N)c1ccc2cc(C(=O)NCC3CCCCC3)n(Cc3ccc(C(=O)NCCO)cc3)c2c1", "inhibition at 1 µM": "0 to 25%"}
{"MOLECULE": "CC(C)CCn1c(C(=O)N2CC[C@H](F)C2)cc2ccc(C(=N)N)cc21", "inhibition at 1 µM": "0 to 25%"}
{"MOLECULE": "N=C(N)c1ccc2cc(C(=O)N3CCC[C@H](CF)C3)n(Cc3ccc(C(N)=O)cc3)c2c1", "inhibition at 1 µM": "0 to 25%"}
{"MOLECULE": "N=C(N)c1ccc2cc(C(=O)N3CCC(F)CC3)n(Cc3cccc(NC(=O)CCN)c3)c2c1", "inhibition at 1 µM": "0 to 25%"}
{"MOLECULE": "N=C(N)c1ccc2cc(C(=O)N3CCC(CCN)CC3)n(S(=O)(=O)c3ccc4ccccc4c3)c2c1", "inhibition at 1 µM": "0 to 25%"}
{"MOLECULE": "N=C(N)c1ccc2cc(C(=O)N3CCC(F)(F)CC3)n(Cc3ccc(NC(=O)CCN)cc3)c2c1", "inhibition at 1 µM": "0 to 25%"}
{"MOLECULE": "N=C(N)c1ccc2cc(C(=O)N3CCC(CCNC(=O)c4ccccn4)CC3)n(Cc3ccc(C(F)(F)F)cc3)c2c1", "inhibition at 1 µM": "0 to 25%"}
{"MOLECULE": "N=C(N)c1ccc2cc(C(=O)NC34CC5CC(CC(C5)C3)C4)n(Cc3ccc(Oc4ccc(F)cc4)cc3)c2c1", "inhibition at 1 µM": "25 to 50%"}
{"MOLECULE": "N=C(N)c1ccc2cc(C(=O)N3CCCC(F)(F)C3)n(Cc3ccc(C(N)=O)cc3)c2c1", "inhibition at 1 µM": "0 to 25%"}
{"MOLECULE": "CN(C)C(=O)c1ccc(Cn2c(C(=O)N3CCC(F)(F)C3)cc3ccc(C(=N)N)cc32)cc1", "inhibition at 1 µM": "0 to 25%"}
{"MOLECULE": "CCNC(=O)c1ccc(Cn2c(C(=O)N3CCC(F)(F)C3)cc3ccc(C(=N)N)cc32)cc1", "inhibition at 1 µM": "0 to 25%"}
{"MOLECULE": "N=C(N)c1ccc2c(N)c(C(=O)N3CCC(CCN)CC3)n(CCS(=O)(=O)c3ccccc3)c2c1", "inhibition at 1 µM": "25 to 50%"}
{"MOLECULE": "N=C(N)c1ccc2cc(C(=O)N3CC[C@H](F)C3)n(Cc3ccc(C(N)=O)cc3)c2c1", "inhibition at 1 µM": "0 to 25%"}
{"MOLECULE": "N=C(N)c1ccc2c(O)c(C(=O)NCC3CCCCC3)n(Cc3ccc(C(N)=O)cc3)c2c1", "inhibition at 1 µM": "0 to 25%"}
{"MOLECULE": "N=C(N)c1ccc2cc(C(=O)NCC3CCCCC3)n(Cc3ccc(C(=O)NCCN)cc3)c2c1", "inhibition at 1 µM": "0 to 25%"}
{"MOLECULE": "N=C(N)c1ccc2cc(C(=O)N3CCC(CCO)CC3)n(Cc3ccc(C(F)(F)F)cc3)c2c1", "inhibition at 1 µM": "0 to 25%"}
{"MOLECULE": "CCOC(=O)c1ccc(Cn2c(C(=O)N3CCC(CCN)CC3)c(N)c3ccc(C(=N)N)cc32)cc1", "inhibition at 1 µM": "0 to 25%"}
{"MOLECULE": "N=C(N)c1ccc2cc(C(=O)N3CCC4CCCCC4C3)n(CCS(=O)(=O)c3ccccc3)c2c1 (stereo not drawn)", "inhibition at 1 µM": "0 to 25%"}
{"MOLECULE": "N=C(N)c1ccc2cc(C(=O)N3CCC(F)(F)C3)n(Cc3ccc(NC(=O)CCN)cc3)c2c1", "inhibition at 1 µM": "0 to 25%"}
{"MOLECULE": "N=C(N)c1ccc2c(N)c(C(=O)N3CCc4ccccc4C3)n(CCS(=O)(=O)c3ccccc3)c2c1", "inhibition at 1 µM": "0 to 25%"}
{"MOLECULE": "CCOC(=O)CCCC1CCN(C(=O)c2cc3ccc(C(=N)N)cc3n2Cc2ccc(C(F)(F)F)cc2)CC1", "inhibition at 1 µM": "0 to 25%"}
